Test system: 786-0
Assay: Growth inhibition of human 786-0 cells at 10 uM incubated for 48 hrs by sulforhodamine B assay relative to control
Type: functional
Conditions: 786-0, 48 h, read-out: GI
// reported inhibition of growth at 10 µM for each item listed
READOUT: inhibition of growth at 10 µM

[
  {
    "CHEM_SMILES": "NS(=O)(=O)c1ccc(N/N=C2\\C(=O)N(Cc3ccccc3)c3ccc(Cl)cc32)cc1",
    "READOUT": "inhibition of growth at 10 µM",
    "VALUE_REPORTED": "52%"
  },
  {
    "CHEM_SMILES": "NS(=O)(=O)c1ccc(N/N=C2\\C(=O)N(Cc3ccccc3)c3ccccc32)cc1",
    "READOUT": "inhibition of growth at 10 µM",
    "VALUE_REPORTED": "22%"
  },
  {
    "CHEM_SMILES": "CCOC(=O)CN1C(=O)/C(=N\\Nc2ccc(S(N)(=O)=O)cc2)c2cc(Cl)ccc21",
    "READOUT": "inhibition of growth at 10 µM",
    "VALUE_REPORTED": "10%"
  },
  {
    "CHEM_SMILES": "NS(=O)(=O)c1ccc(N/N=C2\\C(=O)N(Cc3ccccc3)c3ccc(Br)cc32)cc1",
    "READOUT": "inhibition of growth at 10 µM",
    "VALUE_REPORTED": "19%"
  }
]

###

Target: Carbonic anhydrase 12 (Homo sapiens)
Sequence (O43570 whole entry): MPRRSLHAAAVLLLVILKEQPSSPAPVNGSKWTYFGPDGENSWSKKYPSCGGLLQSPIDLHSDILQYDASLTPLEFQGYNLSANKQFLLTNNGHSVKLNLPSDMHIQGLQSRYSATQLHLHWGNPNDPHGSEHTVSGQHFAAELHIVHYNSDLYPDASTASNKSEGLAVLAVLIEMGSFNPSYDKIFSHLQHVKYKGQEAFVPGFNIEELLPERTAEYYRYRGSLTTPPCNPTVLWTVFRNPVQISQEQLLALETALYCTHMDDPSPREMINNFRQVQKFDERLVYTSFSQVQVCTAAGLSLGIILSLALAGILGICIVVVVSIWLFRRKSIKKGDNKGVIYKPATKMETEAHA
Assay: Inhibition of recombinant human carbonic anhydrase 12 preincubated for 15 mins by phenol red dye based stopped flow CO2 hydration assay
pKi: −log10 of the molar value.
Each item that follows carries a reported pKi.
READOUT: pKi

[
  {
    "COMPOUND": "CCOC(=O)CN1C(=O)/C(=N\\Nc2ccc(S(N)(=O)=O)cc2)c2cc(Br)ccc21",
    "VALUE_REPORTED": 7.31
  },
  {
    "COMPOUND": "NS(=O)(=O)c1ccc(N/N=C2\\C(=O)Nc3ccccc32)cc1",
    "VALUE_REPORTED": 7.52
  },
  {
    "COMPOUND": "NS(=O)(=O)c1ccc(N/N=C2\\C(=O)N(Cc3ccccc3)c3ccc(Cl)cc32)cc1",
    "VALUE_REPORTED": 7.47
  },
  {
    "COMPOUND": "NS(=O)(=O)c1ccc(N/N=C2\\C(=O)Nc3ccc(Br)cc32)cc1",
    "VALUE_REPORTED": 7.18
  },
  {
    "COMPOUND": "NS(=O)(=O)c1ccc(N/N=C2\\C(=O)Nc3ccc(Cl)cc32)cc1 [GW280670X]",
    "VALUE_REPORTED": 7.92
  }
]

Data credit: ChEMBL document CHEMBL4311999
